assay: patients with anti-drug antibodies; higher = more immunogenic

protein: unnamed (protein) chain 1: EGQLVQSGGGLVHPGGSLRLSCAGSGFTFSSYGMHWVRQAPGKGLEWVSGIGTGGGTYSTDSVKGRFTISRDNAKNSLYLQMNSLRAEDMAVYYCARGDYYGSGSFFDCWGQGTLVTVSS chain 2: DIQMTQSPSSLSASVGDRVTITCRASQGISSWLAWYQQKPEKAPKSLIYAASSLQSGVPSRFSGSGSGTDFTLTISSLQPEDFATYYCQQYNSYPPTFGQGTKLEIK
patients with anti-drug antibodies [%]: 0
//
protein: unnamed (protein) chain 1: EVQLQQSGPELVKPGASVKMSCKASGYTFTSYVVHWVKQNPGQGLEWIGYINPFNDGTKYNENFKGKATLTSDRSSSTAYMELSSLTSEESAVYFCARDMGREGFAYWGQGTLVTVSA chain 2: DIVMTQAAFSNPVTLGTSASISCRSSKSLLHSNGITYLYWYLQKPGQSPQLLIYQMSNLASGVPDRFSSSGSGTDFTLRISRVEAEDVGVYYCAQNLELPRTFGGGTKLEI
patients with anti-drug antibodies [%]: 100
//
protein: unnamed (protein) chain 1: EVQLVESGGGLVQPGGSLRLSCAASGFTFSRYWMSWVRQAPGKGLEWVANIKQDGSEKYYVDSVKGRFTISRDNAKNSLYLQMNSLRAEDTAVYYCAREGGWFGELAFDYWGQGTLVTVSS chain 2: EIVLTQSPGTLSLSPGERATLSCRASQRVSSSYLAWYQQKPGQAPRLLIYDASSRATGIPDRFSGSGSGTDFTLTISRLEPEDFAVYYCQQYGSLPWTFGQGTKVEIK
patients with anti-drug antibodies [%]: 3.3
//
protein: unnamed (protein) chain 1: QVQLQQSGAEVKKPGSSVKVSCKASGYTFTSYNMHWVKQAPGQGLEWIGAIYPGMGDTSYNQKFKGKATLTADESTNTAYMELSSLRSEDTAFYYCARSTYYGGDWYFDVWGQGTTVTVSS chain 2: DIQLTQSPSSLSASVGDRVTMTCRASSSVSYIHWFQQKPGKAPKPWIYATSNLASGVPVRFSGSGSGTDYTFTISSLQPEDIATYYCQQWTSNPPTFGGGTKLEIK
patients with anti-drug antibodies [%]: 19.5
//
protein: unnamed (protein) chain 1: QVQLVQSGAEVKKPGSSVKVSCKASGYTFTSYRMHWVRQAPGQGLEWIGYINPSTGYTEYNQKFKDKATITADESTNTAYMELSSLRSEDTAVYYCARGGGVFDYWGQGTLVTVSS chain 2: DIQMTQSPSTLSASVGDRVTITCSASSSISYMHWYQQKPGKAPKLLIYTTSNLASGVPARFSGSGSGTEFTLTISSLQPDDFATYYCHQRSTYPLTFGQGTKVEVK
patients with anti-drug antibodies [%]: 19
//
protein: unnamed (protein) chain 1: EVQLVQSGAEVKKPGASVKVSCKASGYTFTDYNMHWVRQAPGQGLEWMGEINPNSGGAGYNQKFKGRVTMTTDTSTSTAYMELRSLRSDDTAVYYCARLGYDDIYDDWYFDVWGQGTTVTVSS chain 2: DIQMTQSPSSLSASVGDRVTITCRASQDISNYLNWYQQKPGKAPKLLIYYTSRLLSGVPSRFSGSGSGTDFTLTISSLQPEDFATYYCQQGDTLPYTFGGGTKVEIK
patients with anti-drug antibodies [%]: 18.1
//
protein: unnamed (protein) chain 1: QVQLVQSGAEVKKPGASVKVSCKASGYTFTNHYMHWVRQAPGQGLEWMGIINPISGSTSNAQKFQGRVTMTRDTSTSTVYMELSSLRSEDTAVYYCARDIVDAFDFWGQGTMVTVSS chain 2: AIQLTQSPSSLSASVGDRVTITCRASQGISSALVWYQQKPGKAPKLLIYDASSLESGVPSRFSGSGSGTDFTLTISSLQPEDFATYYCQQFNDYFTFGPGTKVDIK
patients with anti-drug antibodies [%]: 5
//
protein: unnamed (protein) chain 1: QVQLVESGGGVVQPGRSLRLSCAASGFSFSNYGMHWVRQAPGKGLEWVALIWYDGSNEDYTDSVKGRFTISRDNSKNTLYLQMNSLRAEDTAVYYCARWGMVRGVIDVFDIWGQGTVVTVSS chain 2: DIQMTQSPSSVSASVGDRVTITCRASQGISSWLAWYQHKPGKAPKLLIYAASSLQSGVPSRFSGSGSGTDFTLTISSLQPEDFATYYCQQANSFPWTFGQGTKVEIK
patients with anti-drug antibodies [%]: 0
//
protein: unnamed (protein) chain 1: EVQLVESGGGLVQPGGSLRLSCAASGYEFSRSWMNWVRQAPGKGLEWVGRIYPGDGDTNYSGKFKGRFTISADTSKNTAYLQMNSLRAEDTAVYYCARDGSSWDWYFDVWGQGTLVTVSS chain 2: DIQMTQSPSSLSASVGDRVTITCRSSQSIVHSVGNTFLEWYQQKPGKAPKLLIYKVSNRFSGVPSRFSGSGSGTDFTLTISSLQPEDFATYYCFQGSQFPYTFGQGTKVEIK
patients with anti-drug antibodies [%]: 1.4
//
protein: unnamed (protein) chain 1: QVQLVQSGAEVKKPGASVKVSCKASGYTFTNYGMNWVRQAPGQGLEWMGWINTYTGEPTYADDFKGRVTMTTDTSTSTAYMELRSLRSDDTAVYYCARIGDSSPSDYWGQGTLVTVSS chain 2: EIVMTQSPATLSVSPGERATLSCKASQSVSNDVVWYQQKPGQAPRLLIYYASNRYTGIPARFSGSGSGTEFTLTISSLQSEDFAVYYCQQDYTSPWTFGQGTKLEIK
patients with anti-drug antibodies [%]: 0
